# target of assay: Human TREX1 enzyme (amino acids 1-242) (Homo sapiens, UniProt Q9NSU2)
# Sequence (Q9NSU2 1-242): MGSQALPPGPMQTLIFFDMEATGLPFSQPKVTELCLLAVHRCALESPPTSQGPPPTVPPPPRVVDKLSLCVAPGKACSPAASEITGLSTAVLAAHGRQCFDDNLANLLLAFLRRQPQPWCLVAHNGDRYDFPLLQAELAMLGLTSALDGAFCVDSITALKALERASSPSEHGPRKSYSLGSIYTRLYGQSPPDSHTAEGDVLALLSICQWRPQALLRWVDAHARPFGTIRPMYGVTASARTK
property: IC50

[[record]]
smiles_data = "COc1cc(-c2nc3ccncc3[nH]2)c(C)c(O)c1O"
readout_value = "10 to 100 µM"

[[record]]
smiles_data = "COc1cc(-c2nc3cc(N4CCN(C(=O)c5ccccn5)CC4)ccc3[nH]2)cc(O)c1O"
readout_value = "10 to 100 µM"

[[record]]
smiles_data = "COc1c(C)c(-c2nc3cc(N4CCC4)ccc3n2C2CCC2)c(F)c(O)c1O"
readout_value = "1 to 10 µM"

[[record]]
smiles_data = "O=C(O)c1cc(-c2nc3ccccc3n2C2COC2)ccc1O"
readout_value = "> 100 µM"

[[record]]
smiles_data = "COc1cc(-c2nc3ccncc3n2C)c(C)c(O)c1O"
readout_value = "10 to 100 µM"

[[record]]
smiles_data = "CNc1ccc2nc(-c3cc(OC)c(O)c(O)c3F)n(C3(C)COC3)c2c1"
readout_value = "0.1 to 1 µM"

[[record]]
smiles_data = "O=C(O)c1ccc(-c2nc3cc(N4CCC4)ccc3[nH]2)c(F)c1O"
readout_value = "1 to 10 µM"

[[record]]
smiles_data = "COc1cc(-c2nc3ccc(S(C)(=O)=O)cc3n2C2(C)COC2)c(F)c(O)c1O"
readout_value = "1 to 10 µM"

[[record]]
smiles_data = "COc1cc(-c2nc3cc(N4CCC4)ccc3n2C2COC2)cc(O)c1O"
readout_value = "1 to 10 µM"

[[record]]
smiles_data = "COc1cc(-c2nc3ccc(-c4ncco4)cc3n2C2(C)COC2)c(F)c(O)c1O"
readout_value = "≤ 0.1 µM"

[[record]]
smiles_data = "COc1cc(-c2nc3cc(N4CC(S(C)(=O)=O)C4)ccc3[nH]2)cc(O)c1O"
readout_value = "1 to 10 µM"

[[record]]
smiles_data = "COc1cc(-c2nc3cc(N4CCOCC4)ccc3[nH]2)cc(O)c1O"
readout_value = "> 100 µM"

[[record]]
smiles_data = "COc1cc(-c2nc3cc(N4CCC4)ccc3n2C2CCC2)c(C)c(O)c1O"
readout_value = "0.1 to 1 µM"

[[record]]
smiles_data = "COc1cc(-c2nc3cc(N4CCC4=O)ccc3n2C2(C)COC2)c(F)c(O)c1O"
readout_value = "0.1 to 1 µM"

[[record]]
smiles_data = "COc1cc(-c2nc3cc(N4CCNC(C)(C)C4)ccc3[nH]2)cc(O)c1O"
readout_value = "10 to 100 µM"

[[record]]
smiles_data = "COc1cc(-c2nc3cc(C4CCC4)ccc3[nH]2)cc(O)c1O"
readout_value = "> 100 µM"

[[record]]
smiles_data = "COc1cc(-c2nc3c(Cl)c(Cl)ccc3n2C2(C)COC2)cc(O)c1O"
readout_value = "0.1 to 1 µM"

[[record]]
smiles_data = "O=C(O)c1ccc(-c2nc3ccccc3n2C2COC2)c(C(F)(F)F)c1O"
readout_value = "> 100 µM"


----------
pIC50: −log10 of the molar value.
Measured pIC50 (Human TREX1 enzyme (amino acids 1-242) (Homo sapiens, UniProt Q9NSU2))
property: pIC50

[[record]]
compound = "COc1cc(-c2nc3cc(N4CC5(C4)CN(C(C)C)C5)ccc3[nH]2)cc(O)c1O"
readout_value = "4.00 to 5.00"

[[record]]
compound = "COc1cc(-c2nc3cc(N4CC(F)C4)ccc3[nH]2)cc(O)c1O"
readout_value = "< 4.00"

[[record]]
compound = "COc1cc(-c2nc3ccc(S(=O)(=O)Nc4ccccc4)cc3n2C(CO)CCl)cc(O)c1O (stereo not drawn)"
readout_value = "4.00 to 5.00"

[[record]]
compound = "COc1cc(-c2nc3ccc(N4CCOC4=O)cc3n2C2(C)COC2)c(F)c(O)c1O"
readout_value = "≥ 7.00"

[[record]]
compound = "COc1cc(-c2nc3ccccc3n2C2(C)CC2)c(F)c(O)c1O"
readout_value = "6.00 to 7.00"

[[record]]
compound = "COc1cc(-c2nc3ccc(C(C)(C)O)cc3n2C2(C)COC2)c(F)c(O)c1O"
readout_value = "5.00 to 6.00"

[[record]]
compound = "CCn1c(-c2cc(O)c(O)c(OC(C)C)c2)nc2cccnc21"
readout_value = "< 4.00"

[[record]]
compound = "COc1cc(-c2nc3cc(N4CCN(S(=O)(=O)C(C)C)CC4)ccc3[nH]2)cc(O)c1O"
readout_value = "5.00 to 6.00"

[[record]]
compound = "COc1cc(-c2nc3ccncc3n2C)cc(O)c1O"
readout_value = "< 4.00"

